# study_target: Geranylgeranyl transferase type I (Bos taurus, UniProt P29702+Q5EAD5)
# test_description: Inhibition of bovine geranylgeranyl transferase type I
# Assay type: protein-complex assay
Please provide measured IC50 for the entries that follow.
Please give a number only; it is taken to be in µM.

Query: State the recorded IC50 for this entry: Cn1cncc1C(O)(c1ccc(Cl)cc1)c1ccc2c(c1)n(-c1ccc3ccccc3c1)c(=O)n2C (centres undefined)
Result: 2.9

Query: Next record, please: CCOc1cccc(-n2c(=O)n(C)c3ccc(C(O)(c4ccc(Cl)cc4)c4cncn4C)cc32)c1 (centres undefined)
Result: 7.5

Query: What about this compound? Cn1cncc1C(O)(c1ccc(C#N)cc1)c1ccc2c(c1)n(Cc1cccc(Cl)c1)c(=O)n2C (centres undefined)
Result: 5.6

Query: Next entry: Cn1cncc1C(O)(c1ccc(I)cc1)c1ccc2c(c1)n(-c1cccc(Cl)c1)c(=O)n2C (centres undefined)
Result: 1.2

Query: Check Cn1cncc1C(O)(c1ccc(C#N)cc1)c1ccc2c(c1)n(-c1cccc(Cl)c1)c(=O)n2C (centres undefined) too.
Result: 1.8

* * *

# study_target: Protein farnesyltransferase (Mus musculus) (UniProt Q61239+Q8K2I1)
# test_description: Percent inhibition of Ras processing in H-ras transformed NIH3T3 cells at 100 nM
# Format: functional, cell-based
Provide the recorded inhibition for the entries that follow.
Report only the number, with the unit % understood.

Query: Can you look up the measured inhibition of Cn1cncc1C(O)(c1ccc(C#N)cc1)c1ccc2c(c1)n(Cc1cccc(Cl)c1)c(=O)n2C (configuration not stated) for me?
Result: 51

Query: What would you report for COc1cccc(-n2c(=O)n(C)c3ccc(C(O)(c4ccc(Cl)cc4)c4cncn4C)cc32)c1 (configuration not stated) ?
Result: 24

Query: Next compound up: CCOc1cccc(-n2c(=O)n(C)c3ccc(C(O)(c4ccc(C#N)cc4)c4cncn4C)cc32)c1 (configuration not stated)
Result: 47

Query: Another: Cn1cncc1C(O)(c1ccc(I)cc1)c1ccc2c(c1)n(-c1cccc(Cl)c1)c(=O)n2C (configuration not stated)
Result: 2

Query: Can you check Cn1cncc1C(O)(c1ccc(Cl)cc1)c1ccc2c(c1)n(-c1cccc(Cl)c1)c(=O)n2C (configuration not stated) next?
Result: 26

Query: What about this compound? Cn1cncc1C(O)(c1ccc(Cl)cc1)c1ccc2c(c1)n(-c1ccc3ccccc3c1)c(=O)n2C (configuration not stated)
Result: 0

Query: Query Cn1cncc1C(O)(c1ccc(C#N)cc1)c1ccc2c(c1)n(-c1ccc3c(c1)OCO3)c(=O)n2C (configuration not stated) next
Result: 0

* * *

# study_target: Geranylgeranyl transferase type I (Bos taurus, UniProt P29702+Q5EAD5)
# test_description: Inhibition of bovine geranylgeranyl transferase type I in presence of Lonafarnib
# Type: protein-complex assay
pIC50: −log10 of the molar value.
outcome_measure: pIC50

Query: What does the data say about its pIC50? Entry: Cn1cncc1[C@@](N)(c1ccc(Cl)cc1)c1ccc2c(c1)c(-c1cccc(Cl)c1)cc(=O)n2C [TIPIFARNIB]
Result: < 5.00

* * *

# test_description: Inhibition of bovine farnesyl transferase
# Set-up: species or system Bos taurus
outcome_measure: pIC50
pIC50 here: minus log base 10 of the concentration, concentration in moles per litre.

Query: Item under review: Cn1cncc1C(O)(c1ccccc1)c1ccc2ccn(-c3cccc(Cl)c3)c2c1 (centres undefined) . Reported pIC50?
Result: 7.44

Query: // same read-out, input: Cn1cncc1C(O)(c1ccc(I)cc1)c1ccc2c(c1)n(-c1cccc(Cl)c1)c(=O)n2C (centres undefined)
Result: 7.62

Query: For Cn1cncc1C(O)(c1ccc(C#N)cc1)c1ccc2c(c1)n(-c1ccc3c(c1)OCO3)c(=O)n2C (centres undefined) then?
Result: 8.10

Query: Similarly, Cn1cncc1C(O)(c1ccc(Cl)cc1)c1ccc2c(c1)n(-c1ccc3ccccc3c1)c(=O)n2C (centres undefined) ?
Result: 7.68

Query: Then CCOc1cccc(-n2c(=O)n(C)c3ccc(C(O)(c4ccc(C#N)cc4)c4cncn4C)cc32)c1 (centres undefined) ?
Result: 9.30

Query: Then what about the compound Cn1cncc1C(O)(c1ccccc1)c1ccc2ccn(-c3cccc4ccccc34)c2c1 (centres undefined) ?
Result: 6.70

Query: Try this compound too: Cn1cncc1C(O)(c1ccc(Cl)cc1)c1ccc2c(c1)n(-c1cccc(Cl)c1)c(=O)n2C (centres undefined)
Result: 7.80

Query: Do the same for Cn1cncc1C(O)(c1ccc(Cl)cc1)c1ccc2c(c1)n(-c1ccc3c(c1)OCO3)c(=O)n2C (centres undefined) please
Result: 6.82

Query: Likewise for Cn1cncc1C(O)(c1ccc(Cl)cc1)c1ccc2c(c1)n(C)c(=O)n2-c1cccc(Cl)c1 (centres undefined) ?
Result: 5.96
